Measured inhibition at 2.5 µM of individual entries
System: human prostate cancer cell line PC3
protocol-notes: Cell proliferation inhibitory activity (Cell Counting Kit-8), prostate cancer PC3
Assay type: cell-based
conditions: 96 h, PC3, 4 days
Where a name gives a salt, the structure may show the parent alone.
property-measured: inhibition at 2.5 µM (%)

1. Nc1ncc(-c2nc(N3CCOCC3)nc3c2CCN3c2ccc(C(=O)N3CCN(c4cccnc4)CC3)cc2)cn1; 99
2. CCNC(=O)N1CCc2c(-c3cnc(N)nc3)nc(N3CCOCC3)nc21; 88
3. CNC(=S)N1CCc2c(-c3cccc(O)c3)nc(N3CCOCC3)nc21 [Example C-55, trifluoroacetic acid salt]; 87
4. CN(C)CCNC(=O)c1cccc(-c2nc(N3CCOCC3)nc3c2CCN3c2cccnc2)c1; 49
5. Nc1ncc(-c2nc(N3CCOCC3)nc3c2CCN3c2ccc(CN3CCN(CCCCF)CC3)cc2)cn1; 0
6. NCc1ccc(-c2nc(N3CCOCC3)nc3c2CCN3c2ccncc2)cc1 [Example B-32, hydrochloride]; 29
7. Nc1ncc(-c2nc(N3CCOCC3)nc3c2CCN3c2ccc(CN3CCN(CCF)CC3)cc2)cn1; 65
8. Nc1ncc(-c2nc(N3CCOCC3)nc3c2CCN3c2ccc(C(=O)N3CCNCC3)nc2)cn1; 60
9. CCCN1CCN(Cc2ccc(N3CCc4c(-c5cnc(N)nc5)nc(N5CCOCC5)nc43)cc2)CC1; 79
10. CCN1CCN(C(=O)c2ccc(C)c(NC(=S)N3CCc4c(-c5cnc(N)nc5)nc(N5CCOCC5)nc43)c2)CC1; 93
11. CCN1CCN(C(=O)c2ccc(N3CCc4c(-c5cnc(N)nc5)nc(N5CCOCC5)nc43)cn2)CC1; 91
12. Nc1ncc(-c2nc(N3CCOCC3)nc3c2CCN3C(=O)Nc2ccc(C(=O)N3CCOCC3)cc2)cn1; 34
13. CCN1CCN(C(=O)c2cc(F)c(NC(=O)N3CCc4c(-c5cnc(N)nc5)nc(N5CCOCC5)nc43)c(F)c2)CC1; 91
14. Nc1ncc(-c2nc(N3CCOCC3)nc3c2CCN3c2cc(C(=O)N3CCOCC3)ccc2F)cn1; 73
15. CCN1CCN(c2cc(F)c(NC(=O)N3CCc4c(-c5cnc(N)nc5)nc(N5CCOCC5)nc43)c(F)c2)CC1; 93

Provenance of the data: patent US8022205B2
